Target: prostaglandin-A isomerase (PGAI)
Assay: Prostaglandin-A isomerase (PGAI) inhibiting action, method of Jones et al., PGAI preparation from blood plasma of pigs
Assay type: biochemical
Conditions: concentration inhibiting enzyme function to 50%; PGAI from pig blood plasma; read-out: I50% inhibiting level in final concentration, PGAI
Measured parameter: IC50 (µM)

INSERT INTO assay_data (molecule, assay_target, measured_parameter, observed_value) VALUES
  ('Cc1nn(-c2ccc(NN)nn2)c(C)c1Br [Example 35]', 'prostaglandin-A isomerase (PGAI)', 'IC50', 80),
  ('Cc1cc(C)n(-c2ccc(N(C)C)nn2)n1 [Example 19]', 'prostaglandin-A isomerase (PGAI)', 'IC50', 130),
  ('Cl.NNc1nncc2ccccc12 [Hydralazine, 1-hydrazinophthalazine hydrochloride, reference compound]', 'prostaglandin-A isomerase (PGAI)', 'IC50', 90),
  ('Cc1nn(-c2ccc(NN)nn2)c(C)c1C [Example 31]', 'prostaglandin-A isomerase (PGAI)', 'IC50', 60),
  ('Cc1nn(-c2ccc(NN)nn2)c(C)c1N [Example 44]', 'prostaglandin-A isomerase (PGAI)', 'IC50', 70),
  ('c1ccc(CNc2ccc(-n3nc(-c4ccccc4)cc3-c3ccccc3)nn2)cc1 [Example 21]', 'prostaglandin-A isomerase (PGAI)', 'IC50', 20),
  ('Cc1cc(C)n(-c2ccc(NN)nn2)n1 [Example 25]', 'prostaglandin-A isomerase (PGAI)', 'IC50', 25);
